Where do the numbers come from? From PubChem BioAssay.

Entries annotated with measured activity remaining
Test system: Aerobactin synthetase IucA (Klebsiella pneumoniae hvKP1)
Assay: Biochemical IucA enzyme inhibition primary screen of the Spectrum library (AID 1346200);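 also: 100% = wells without compound and 0% = wells lacking enzyme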
Conditions: malachite green pyrophosphate, A620, at 8 µM, stronger effect = lower value
The source made the active and inactive calls. No rule for the calls is given here.

// query Given C[C@@H]1CC[C@@]23CCC4(C)[C@@](C=CC5[C@@]6(C)CC[C@H](O)C(C)(C)C6CC[C@]54C)(OC2=O)C3[C@H]1C (stereo not given in full) , state its recorded activity remaining.
// result 99.4% (inactive)

// query Given NCCCCN=C(N)N , state its recorded activity remaining.
// result 123% (inactive)

* * *

Experiment: growth inhibition of GSK3B-pretreated HCT116 cells – cell-based, CellTiter-Glo, 0.2 to 20 µM (AID 1117336)
Conditions: HCT116 viability after GSK3B inhibitor, at 20 µM, stronger effect = higher value
metric: viability decrease (%)
# value in %; strip the unit string

// below: answered compounds
compound	unit_info	value_reported
NC(=O)OCCCc1ccccc1	%	-9.45
Clc1ccccc1N1CCNCC1	%	4.1
C#C[C@]1(O)CC[C@H]2[C@@H]3CCC4=CC(=O)CCC4=C3C=C[C@@]21CC	%	14.5

// query Given O=C(N/N=C/c1ccc([N+](=O)[O-])o1)c1cc([N+](=O)[O-])cc([N+](=O)[O-])c1O , state its recorded viability decrease.
// result 79.6

// query Given Clc1ccc(C(OCCN2CCCCC2)c2ccccc2)cc1 (configuration not stated) , state its recorded viability decrease.
// result -162

// query Given CCOP(=S)(OCC)Oc1ccc2c(C)c(Cl)c(=O)oc2c1 , state its recorded viability decrease.
// result -12.5

// query Given O=C(O)CCCc1ccc(N(CCCl)CCCl)cc1 , state its recorded viability decrease.
// result 49.8

* * *

Assay: liver-stage malaria parasite growth inhibition, primary screen, cell-based, HepG2, luciferase luminescence, HepG2 viability (AID 624349);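 also: 100% = mean of DMSO negative control wells on the same plate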
Conditions: P. berghei liver stage in HepG2, luciferase luminescence, concentration not given here; measured here: HepG2 viability without parasites
metric: viability (%)
# value in %; strip the unit string

// below: answered compounds
compound	unit_info	viability
CN1CCC2=C[C@H](O)[C@H]3OC(=O)c4cc5c(cc4[C@H]3[C@@H]21)OCO5	%	96.9
C=CC[C@]1(O)CCC2C3CCC4=CC(=O)CCC4=C3C=C[C@@]21C (stereo not given in full)	%	98.9
O=C1C[C@@H]2OCC=C3CN4CC[C@]56c7ccccc7N1[C@H]5[C@H]2[C@H]3C[C@H]46	%	226
C/C=C1/C[N+]2(C)CCC34C(=C(C=O)[C@H]1C[C@@H]32)Nc1ccccc14 (stereo not given in full)	%	101
CNC(C)[C@H](O)c1ccccc1 (stereo not given in full)	%	74.2
C=C1N[C@@H](Cc2ccc3[nH]cc(CCN(C)C)c3c2)CO1	%	107
C[C@]12CCC(=O)C=C1CCC1C2CC[C@@]2(C)C1CC[C@@H]2O (stereo not given in full)	%	110
COc1ccc(C[C@@H]2NC[C@@H](O)[C@@H]2OC(C)=O)cc1	%	32.9

// query Given C[N+]1(CCC(C(N)=O)(c2ccccc2)c2ccccc2)CCCCC1 , state its recorded viability.
// result 70.3

// query Given CC1CCC[C@H](O)CCCCCc2cc(O)cc(O)c2C(=O)O1 (stereo not given in full) , state its recorded viability.
// result 64.7
